Values were extracted from ChEMBL document CHEMBL4513216.

# PROTOCOL_DETAILS: Toxicity liver stage against HepG2, at 10uM
# Format: cell-based
# Set-up: test concentration 10 uM, cell line HepG2-A16-CD81EGFP
# SETTINGS: human, HepG2-A16-CD81EGFP cells; read-out: INHIBITION
PROPERTY_LABEL: cytotoxicity at 10 µM

- CN1CCN(C(=O)c2n[nH]c3c2CN(Cc2nccs2)CC3)CC1: -144%
- O=C(CCN1CCCN(c2nccs2)CC1)NCC1CCCCC1: -5.1%
- CC(=O)N1CC[C@@H]2O[C@@H](COCC(=O)N3CCCC3)CC[C@@H]21: -7.73%
- CSCC[C@@H](CO)NC(=O)c1ccc2nc(NS(C)(=O)=O)sc2c1: 10.7%
